Data origin, for the record: paper PMC8179002

- System: cellular uptake of 1 in HeLa Kyoto cells
- measurement-protocol: cells
- Assay type: cell-based
- recorded-conditions: HeLa Kyoto, HeLa; tpre 1 h with inhibitor, removal, tinc 0.5 h with 1 (10 µM); read-out: IC50, inhibition of cellular uptake of 1
assay-readout: IC50 (µM)

>>> df
                                   compound                       experimental_system  assay_readout  readout_unit  inequality_operator  experimental_result
0  O=C(O)CNC(=O)c1ccc2c(c1)S[S+]([O-])S2 (stereo not shown)  cellular uptake of 1 in HeLa Kyoto cells           IC50            µM                    >                   20
1            O=C(O)CNC(=O)c1ccc2c(c1)SSSSS2  cellular uptake of 1 in HeLa Kyoto cells           IC50            µM                    =                   35
2  CNC(=O)[C@H](CS[S+]([O-])C[C@H](NC(=O)OC(C)(C)C)C(=O)NC)NC(=O)OC(C)(C)C (stereo partly shown)  cellular uptake of 1 in HeLa Kyoto cells           IC50            µM                    >                 1000
3  O=C(O)CC[C@H](NC(=O)CN1C(=O)C2SSC1C(=O)N2CCOc1ccccc1)C(=O)O (stereo partly shown)  cellular uptake of 1 in HeLa Kyoto cells           IC50            µM                    =                   86

* * *

Examples of compounds with documented GI50 follow.
- measurement-protocol: Relative cell viability in HCHT screening (propidium iodide negative nuclei count)
- Assay type: cell-based
- recorded-conditions: human, HeLa; tpre 4 h with inhibitor, removal, tinc 0.5 h with 1 (10 µM); read-out: GI50, concentration causing 50% cell growth inhibition
assay-readout: GI50 (µM)

>>> df
                                   compound  inequality_operator  experimental_result
0  O=C(O)CCCCC1CCS[S+]1[O-] (stereo not drawn) [compound 27]                    =                 1800
1  O=C(O)C1CS[S+]([O-])C1 (stereo not drawn) [compound 23]                    =                 1470
2  CCN1C(=O)C2SSSSC1C(=O)N2CC(=O)O (stereo not drawn) [compound 3]                    >                   50

* * *

- measurement-protocol: Relative cell viability in HCHT screening (propidium iodide negative nuclei count)
- Type: cell-based
- recorded-conditions: human, HeLa; tpre 2 h with inhibitor, removal, tinc 0.5 h with 1 (10 µM); read-out: GI50, concentration causing 50% cell growth inhibition
assay-readout: GI50

>>> df
                                    compound  experimental_result
 0  O=C(O)C1CS[S+]([O-])C1 (centres unmarked)              1780 µM
 1  O=C(CN1C(=O)C2SSC1C(=O)N2CCOc1ccccc1)NCCS(=O)(=O)O (centres unmarked)             > 100 µM
 2  CCN1C(=O)C2SSC1C(=O)N2CC(=O)NCC[N+](C)(C)C (centres unmarked)             > 100 µM
 3                      O[C@@H]1CSSC[C@@H]1O            > 2000 µM
 4  O=C(O)CNC(=O)c1ccc2c(c1)S[S+]([O-])S2 (centres unmarked)              > 20 µM
 5         COCCOCCOCCNC(=O)c1ccc2c(c1)SSSSS2                ~7 µM
 6  CCN1C(=O)C2SSSSC1C(=O)N2CC(=O)O (centres unmarked)              46.1 µM
 7                             O=C(O)C1CSSC1            > 2000 µM
 8  O=C(CN1C(=O)C2SSC1C(=O)N2CCOc1ccccc1)NCC(=O)OC[C@H]1OC(O)[C@H](O)[C@@H](O)[C@@H]1O (some centres unmarked)             > 100 µM
 9  O=C(O)CCCCC1CCS[S+]1[O-] (centres unmarked)            > 5000 µM
10  CCN1C(=O)C2SSC1C(=O)N2CC(=O)O (centres unmarked)              ~9.2 µM
